Consider the following binders and their measured pKd readings.
system_name: T1, recombinant human activated Factor VII (FVIIa) (human, UniProt P08709 61-212; P08709 213-466, ten glutamate residues of the Gla domain may be gamma-carboxylated)
T1 construct: chains tethered by a disulfide bond; also called Factor VIIa; rFVIIa
T1 sequence 1: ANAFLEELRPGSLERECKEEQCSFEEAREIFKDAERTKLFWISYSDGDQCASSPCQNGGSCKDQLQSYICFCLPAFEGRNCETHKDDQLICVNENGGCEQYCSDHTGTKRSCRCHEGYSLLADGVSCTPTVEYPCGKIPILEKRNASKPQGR
T1 sequence 2: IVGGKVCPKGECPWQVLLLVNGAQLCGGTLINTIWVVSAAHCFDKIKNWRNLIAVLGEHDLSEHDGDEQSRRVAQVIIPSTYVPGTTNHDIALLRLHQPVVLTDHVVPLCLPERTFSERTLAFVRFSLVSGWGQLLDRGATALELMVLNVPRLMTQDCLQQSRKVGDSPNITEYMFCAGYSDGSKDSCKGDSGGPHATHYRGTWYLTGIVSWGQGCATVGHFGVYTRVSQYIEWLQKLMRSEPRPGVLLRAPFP
assay_explanation: BLI (Fortebio)
Remember the convention: pKd equals -log10 of concentration in molar.

Sample records with pKd:
binder	pKd
VH SEQ ID NO 642 / VL SEQ ID NO 454 (antibody, IgG4, V domains shown, humanized 11F2; IgG4 S228P/kappa) VH: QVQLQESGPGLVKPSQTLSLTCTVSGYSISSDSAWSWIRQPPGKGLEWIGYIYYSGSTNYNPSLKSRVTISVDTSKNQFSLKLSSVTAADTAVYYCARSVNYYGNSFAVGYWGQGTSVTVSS VL: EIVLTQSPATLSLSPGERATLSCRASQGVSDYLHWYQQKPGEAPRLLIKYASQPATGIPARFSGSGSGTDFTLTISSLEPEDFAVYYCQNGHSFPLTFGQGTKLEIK	7.60
VH SEQ ID NO 546 / VL SEQ ID NO 390 (antibody, IgG4, V domains shown, humanized 11F2; IgG4 S228P/kappa) VH: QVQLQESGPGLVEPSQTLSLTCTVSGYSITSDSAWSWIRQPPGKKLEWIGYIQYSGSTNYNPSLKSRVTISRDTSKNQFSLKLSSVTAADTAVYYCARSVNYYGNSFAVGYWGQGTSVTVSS VL: EIVLTQSPATLSLSPGERATLSCRASQGVSDYLAWYQQKPGEAPRLLIKYASQPATGIPARFSGSGSGTDFTLTISSLEPEDFAVYYCQNGHSFPLTFGQGTKLEIK	8.15

Turning now to a further binder:
IN: Can you share its pKd? I mean this binder: VH SEQ ID NO 530 / VL SEQ ID NO 414 (antibody, IgG4, V domains shown, humanized 11F2; IgG4 S228P/kappa) VH: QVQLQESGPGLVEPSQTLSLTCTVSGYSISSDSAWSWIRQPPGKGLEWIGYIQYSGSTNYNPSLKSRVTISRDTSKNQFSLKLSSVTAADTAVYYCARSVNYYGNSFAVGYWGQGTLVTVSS VL: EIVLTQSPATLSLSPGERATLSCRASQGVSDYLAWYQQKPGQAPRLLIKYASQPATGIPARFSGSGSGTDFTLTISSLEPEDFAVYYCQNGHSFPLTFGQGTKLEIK
OUT: 8.35

Cited source for all entries: patent US20220064329A1
